# Tested on: breast cancer T47D
# assay notes: Cytotoxic activity in vitro, WST1 test
# Format: cell-based, human
# experimental parameters: Homo sapiens, T47D cells, Neg = no activity in the applied concentration range, read-out: Cytotoxic activity in vitro as IC50
I'd be grateful if you could share measured IC50 for these entries.
Give bare numbers, in mg/L.

* C#CC(=O)OC[C@]12CC[C@@H](/C(C)=C/P(=O)(OCC)OCC)[C@@H]1[C@H]1CC[C@@H]3[C@@]4(C)CC[C@H](O)C(C)(C)[C@@H]4CC[C@@]3(C)[C@]1(C)CC2 | 0.4

Continue with the next compound.
# IC50 of `CCOP(=O)(/C=C(\C)[C@@H]1CC[C@]2(COC(=O)C#CC3CC3)CC[C@]3(C)[C@H](CC[C@@H]4[C@@]5(C)CC[C@H](OC(=O)C#CC6CC6)C(C)(C)[C@@H]5CC[C@]43C)[C@@H]12)OCC` = 79.5

----------
# Test system: brain glioma SNB-19
# assay notes: Cytotoxic activity in vitro, WST1 test
# Format: cell-based
# experimental parameters: Homo sapiens, SNB-19 cells, read-out: Cytotoxic activity in vitro as IC50
reported metric: IC50 (µg/mL)
Numbers only, in µg/mL.

- C#CC(=O)OC[C@]12CC[C@@H](/C(C)=C/P(=O)(OCC)OCC)[C@@H]1[C@H]1CC[C@@H]3[C@@]4(C)CC[C@H](O)C(C)(C)[C@@H]4CC[C@@]3(C)[C@]1(C)CC2: 0.3

Measured IC50, `C#CC(=O)OC[C@]12CC[C@@H](/C(C)=C/P(=O)(OCC)OCC)[C@@H]1[C@H]1CC[C@@H]3[C@@]4(C)CC[C@H](OC(=O)C#C)C(C)(C)[C@@H]4CC[C@@]3(C)[C@]1(C)CC2` : 0.6
